This collection of values is drawn from patent US20080248511A1.

# test target: firefly luciferase (Photinus pyralis, UniProt P08659)
# Sequence (P08659 whole entry): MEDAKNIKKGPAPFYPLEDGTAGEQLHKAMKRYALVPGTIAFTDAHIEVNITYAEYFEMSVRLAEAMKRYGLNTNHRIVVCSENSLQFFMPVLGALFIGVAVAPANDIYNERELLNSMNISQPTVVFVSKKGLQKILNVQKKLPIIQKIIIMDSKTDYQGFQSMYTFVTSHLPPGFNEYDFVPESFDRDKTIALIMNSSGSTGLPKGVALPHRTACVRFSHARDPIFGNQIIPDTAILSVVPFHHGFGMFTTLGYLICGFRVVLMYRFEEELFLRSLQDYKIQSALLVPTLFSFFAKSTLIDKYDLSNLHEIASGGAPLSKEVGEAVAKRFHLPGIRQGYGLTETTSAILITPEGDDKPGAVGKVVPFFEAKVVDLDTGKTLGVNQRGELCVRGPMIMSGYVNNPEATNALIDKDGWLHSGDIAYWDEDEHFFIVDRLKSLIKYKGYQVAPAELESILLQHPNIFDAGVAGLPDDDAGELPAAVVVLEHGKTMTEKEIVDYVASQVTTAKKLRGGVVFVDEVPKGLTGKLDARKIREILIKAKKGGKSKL
# assay method text: Detergent titration with Tergitol NP-9, digitonin or no lysing agent, firefly luciferase (Example 4)
# Format: biochemical
# reported conditions: 0.0005% detergent; Terg; read-out: Relative Firefly Luc Intensity
# Method: For measurement of firefly luciferase-mediated luminescence, a solution containing 110 mM HEPES pH 7.5, 8 mM MgSO4, 0.05% gelatin, 7.35 ng/ml firefly luciferase (QuantiLum® Luciferase; Promega) and the content of the Steady-Glo Luciferase Substrate (Promega) at the equivalent of 1×, As in the Renilla luciferase reactions, reactions contained either no lysing agent, 0.5% Tergitol NP-9 or 20 μg/ml digitonin. […]
Listed here are compounds together with their documented remaining activity at 0.0005 %.
Use % as the unit, but write only the number.

Please review the entries below; each comes with its answer.
INSERT INTO measurements (compound, experimental_result) VALUES
  ('CCCCCCCCCCCC[N+](C)(C)Cc1ccccc1.[Br-] [Benzyldimethyldodecylammonium bromide]', 96),
  ('Cc1cc(C)c(C[N+](C)(C)C)cc1C.[Br-]', 95),
  ('CCCCC[N+](CCCCC)(CCCCC)CCCCC.[Br-] [Tetrapentylammonium bromide]', 97),
  ('CCCCCCCCCCCC[N+](C)(C)C.[Br-] [Dodecyltrimethylammonium bromide]', 96),
  ('CCCCCCCCCCCCCCCC[N+](C)(C)C.[Cl-] [Cetyltrimethylammonium chloride]', 98);

Which remaining activity at 0.0005 % is reported for this compound? CCCCCCCCCCCCCC[N+](C)(C)Cc1ccccc1.[Br-] [Benzyldimethyltetradecylammonium bromide] 98

====

Listed here are molecules together with their documented remaining activity at 0.0005 %.
# test target: firefly luciferase (Photinus pyralis)
# assay method text: Detergent titration with Tergitol NP-9, digitonin or no lysing agent, firefly luciferase (Example 4)
# Type: biochemical
# reported conditions: 0.0005% detergent; Dig; read-out: Relative Firefly Luc Intensity

Please review the entries below; each comes with its answer.
INSERT INTO assay_data (molecule, experimental_result) VALUES
  ('CCCCCCCCCCCC[N+](C)(C)Cc1ccccc1.[Br-] [Benzyldimethyldodecylammonium bromide]', '111%'),
  ('CCCCCCCCCCCC[N+](C)(C)C.[Br-] [Dodecyltrimethylammonium bromide]', '103%'),
  ('CCCCCCCCCCCCCCCC[N+](C)(C)C.[Cl-] [Cetyltrimethylammonium chloride]', '164%'),
  ('CCCCC[N+](CCCCC)(CCCCC)CCCCC.[Br-] [Tetrapentylammonium bromide]', '100%'),
  ('CCCCCCCCCCCCCC[N+](C)(C)Cc1ccccc1.[Br-] [Benzyldimethyltetradecylammonium bromide]', '155%');

Which remaining activity at 0.0005 % is reported for this molecule? Cc1cc(C)c(C[N+](C)(C)C)cc1C.[Br-] 116%

====

# test target: firefly luciferase (Photinus pyralis, UniProt P08659)
# assay method text: Detergent titration with Tergitol NP-9, digitonin or no lysing agent, firefly luciferase (Example 4)
# Type: biochemical
# reported conditions: 0.0500% detergent; Water (no lysing agent); read-out: Relative Firefly Luc Intensity
property measured: remaining activity at 0.05 % (%)
Use % as the unit, but write only the number.

Please review the entries below; each comes with its answer.
INSERT INTO results (molecule, property_measured, experimental_result) VALUES
  ('CCCCCCCCCCCCCCCC[N+](C)(C)C.[Cl-] [Cetyltrimethylammonium chloride]', 'remaining activity at 0.05 %', 31),
  ('Cc1cc(C)c(C[N+](C)(C)C)cc1C.[Br-]', 'remaining activity at 0.05 %', 1),
  ('CCCCCCCCCCCC[N+](C)(C)Cc1ccccc1.[Br-] [Benzyldimethyldodecylammonium bromide]', 'remaining activity at 0.05 %', 79),
  ('CCCCC[N+](CCCCC)(CCCCC)CCCCC.[Br-] [Tetrapentylammonium bromide]', 'remaining activity at 0.05 %', 110);

Which remaining activity at 0.05 % is reported for this molecule? CCCCCCCCCCCCCC[N+](C)(C)Cc1ccccc1.[Br-] [Benzyldimethyltetradecylammonium bromide] 10

Which remaining activity at 0.05 % is reported for this molecule? CCCCCCCCCCCC[N+](C)(C)C.[Br-] [Dodecyltrimethylammonium bromide] 197

====

# test target: Renilla luciferase (Renilla reniformis, UniProt P27652)
# Sequence (P27652 whole entry): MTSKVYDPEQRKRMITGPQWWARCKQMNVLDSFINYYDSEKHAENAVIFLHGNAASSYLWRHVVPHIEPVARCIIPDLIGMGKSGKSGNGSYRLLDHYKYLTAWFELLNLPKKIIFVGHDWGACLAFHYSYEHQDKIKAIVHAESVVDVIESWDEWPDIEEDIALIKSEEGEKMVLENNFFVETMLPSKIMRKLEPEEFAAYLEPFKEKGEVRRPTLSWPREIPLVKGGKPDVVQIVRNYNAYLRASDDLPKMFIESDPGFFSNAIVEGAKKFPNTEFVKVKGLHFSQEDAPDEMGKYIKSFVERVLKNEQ
# assay method text: Non-detergent compound screen, Renilla luciferase (Example 6)
# Assay type: biochemical
# reported conditions: inhibitor 100 μM
Think of 3 as a floor: if Selectivity Value stands on it or above, it is met; beneath it, not met.

Completed entries (count: 7):
INSERT INTO assay_data (smiles_str, class_label) VALUES
  ('COc1ccc(CNC(=O)/C=C/c2ccc3[nH]cc(CCN(C)C)c3c2)c(OC)c1', 'met'),
  ('COc1ccc(CNC(=O)/C=C/c2ccc3[nH]ccc3c2)cc1', 'not met'),
  ('COc1ccc(CNC(=O)/C(C#N)=C/c2ccc3[nH]cc(CCN(C)C)c3c2)cc1', 'not met'),
  ('COc1ccc(CCNC(=O)/C=C/c2ccc3[nH]cc(CCN(C)C)c3c2)cc1', 'met'),
  ('COc1ccc(CNC(=O)/C=C/c2ccc3[nH]cc(CN(C)C)c3c2)cc1', 'not met'),
  ('COc1ccc(CNC(=O)/C=C/c2ccc3c(ccc[n+]3C)c2)cc1.[I-]', 'not met'),
  ('CCCC[N+](C)(C)CCc1c[nH]c2ccc(/C=C/C(=O)NCc3ccc(OC)cc3)cc12.[I-]', 'met');

Form field: Selectivity Value at least 3? Entry: CN(C)CCc1c[nH]c2ccc(/C=C/C(=O)NCc3ccc([N+](=O)[O-])cc3)cc12 met

====

Listed here are compounds together with their documented remaining activity at 100 µM.
# test target: UniProt:P27652
# assay method text: Non-detergent compound screen, Renilla luciferase (Example 6)
# Type: biochemical
# reported conditions: inhibitor 100 μM; 0.5% Tergitol NP-9, 0.03% BDDABr; read-out: Retained Renilla Luciferase Value (%)
Use % as the unit, but write only the number.

Please review the entries below; each comes with its answer.
INSERT INTO assay_data (smiles_str, test_target, property_measured, experimental_result) VALUES
  ('COc1ccc(CNC(=O)/C=C/c2ccc3c(ccc[n+]3C)c2)cc1.[I-]', 'UniProt:P27652', 'remaining activity at 100 µM', 85),
  ('COc1cc(CNC(=O)/C=C/c2ccc3[nH]cc(CCN(C)C)c3c2)cc(OC)c1OC', 'UniProt:P27652', 'remaining activity at 100 µM', 95),
  ('COc1ccc(CNC(=O)/C=C/c2ccc3c(c2)c(CCN(C)C)cn3Cc2ccccc2)cc1', 'UniProt:P27652', 'remaining activity at 100 µM', 44);

Turning now to a further record.
Which remaining activity at 100 µM is reported for this compound? COc1ccc(CCNC(=O)/C=C/c2ccc3[nH]cc(CCN(C)C)c3c2)cc1 30

====

# test target: Renilla luciferase (Renilla reniformis)
# assay method text: Detergent titration with Tergitol NP-9, digitonin or no lysing agent, Renilla luciferase (Example 4)
# Format: biochemical
# reported conditions: 0.0050% detergent; Dig; read-out: Relative Renilla Luc Intensity
Kindly apply the following: YES if remaining activity at 0.005 % is less than 60%, NO in every other case.

INSERT INTO results (compound, class_label) VALUES
  ('CCCCCCCCCCCC[N+](C)(C)C.[Br-] [Dodecyltrimethylammonium bromide]', 'YES'),
  ('CCCCCCCCCCCCCCCC[N+](C)(C)C.[Cl-] [Cetyltrimethylammonium chloride]', 'YES');

Strictly below 60%: is that where remaining activity at 0.005 % of CCCCC[N+](CCCCC)(CCCCC)CCCCC.[Br-] [Tetrapentylammonium bromide] sits? NO

Strictly below 60%: is that where remaining activity at 0.005 % of Cc1cc(C)c(C[N+](C)(C)C)cc1C.[Br-] sits? YES

Strictly below 60%: is that where remaining activity at 0.005 % of CCCCCCCCCCCC[N+](C)(C)Cc1ccccc1.[Br-] [Benzyldimethyldodecylammonium bromide] sits? YES

Strictly below 60%: is that where remaining activity at 0.005 % of CCCCCCCCCCCCCC[N+](C)(C)Cc1ccccc1.[Br-] [Benzyldimethyltetradecylammonium bromide] sits? YES

====

# test target: Renilla luciferase (Renilla reniformis, UniProt P27652)
# assay method text: biochemical
# Type: biochemical
# reported conditions: retained firefly / retained Renilla; 0.5% detergent
property measured: Selectivity Value

Please review the entries below; each comes with its answer.
INSERT INTO assay_data (molecule, property_measured, experimental_result) VALUES
  ('C[C@H](CCC(=O)NCCS(=O)(=O)O)[C@H]1CC[C@H]2[C@@H]3CC[C@@H]4C[C@H](O)CC[C@]4(C)[C@H]3CC[C@]12C', 'Selectivity Value', 1.1),
  ('CCCCCCCCCCCCCC[N+](C)(C)Cc1ccccc1.[Br-] [Benzyldimethyltetradecylammonium bromide]', 'Selectivity Value', 1.6);

Quick check: Selectivity Value on Renilla luciferase (Renilla reniformis, UniProt P27652), item C[N+](C)(C)CCCCCC[N+](C)(C)C [Hexamethonium bromide] ? 1.1

Quick check: Selectivity Value on Renilla luciferase (Renilla reniformis, UniProt P27652), item C[N+](C)(C)CCCCCBr.[Br-] [(5-Bromopentyl)trimethylammonium bromide] ? 1.1
